assay: qHTS assay to identify small molecule antagonists of the estrogen receptor alpha (ER-alpha) signaling pathway using the BG1 cell line in the presence of 0.1 nM 17-beta-estradiol - cell viability counter screen (AID 1259241); settings: VM7Luc4E2 (BG1) viability, CellTiter-Fluor protease, 22 h, 0.1 nM estradiol agonist added; series mostly up to 92.4 µM; note: nearly all actives have a fitted effect of over 40% in size
Records with an inconclusive call do not appear. The source made the active and inactive calls. Calls come from the whole dose curve; as a rule, active = well fitted cell-killing curve with a large enough effect in the repeat runs; inconclusive = weak or mixed curves, or effect the other way; inactive = flat fitted curve, though single readings scatter.
Please state which outcome applies, choosing from active, inactive

[Q] Field: outcome | Entry: CC[N+]1(CCOC(=O)C(O)(c2ccccc2)c2ccccc2)CCCCC1
[A] inactive

[Q] Okay, and CCC1(CCC(C)C)C(=O)NC(=O)NC1=O ?
[A] inactive

[Q] Okay, and O=P(OCC(Br)CBr)(OCC(Br)CBr)OCC(Br)CBr (stereo not given) ?
[A] inactive

[Q] Okay, and Nc1ccccc1C(=O)OCCc1ccccc1 ?
[A] inactive

[Q] Okay, and CC(C)(C)OOC(C)(C)CCC(C)(C)OOC(C)(C)C ?
[A] inactive

[Q] Okay, and Cc1ccc(N)c(C)c1 ?
[A] inactive

[Q] Okay, and C[C@]12C=CC3=C4CCC(=O)C=C4CC[C@H]3[C@@H]1CC[C@@H]2O ?
[A] inactive

[Q] Okay, and COC1CC(=C(c2cccs2)c2cccs2)C[N+](C)(C)C1 (stereo not given) ?
[A] inactive

[Q] Okay, and CCCN(CCC)C(=O)Cc1c(-c2ccc(Cl)cc2)nc2ccc(Cl)cn12 ?
[A] inactive

[Q] Okay, and CC(Cl)C(=O)O (stereo not given) ?
[A] inactive

[Q] Okay, and CCCCC(CC)CO[N+](=O)[O-] (stereo not given) ?
[A] inactive

[Q] Okay, and CN1CC[C@]23c4c5ccc(O)c4O[C@H]2[C@@H](O)CC[C@H]3[C@H]1C5 ?
[A] inactive

[Q] Okay, and FC(Cl)(Cl)C(F)(Cl)Cl ?
[A] inactive

[Q] Okay, and CCOC(=O)NC(O)C(Cl)(Cl)Cl (stereo not given) ?
[A] inactive

[Q] Okay, and CCOP(=S)(OCC)Oc1ccc(S(C)=O)cc1 (stereo not given) ?
[A] inactive

[Q] Okay, and NNCCO ?
[A] inactive

[Q] Okay, and CCCC1CCCCN1 (stereo not given) ?
[A] inactive

[Q] Okay, and C[C@H]1[C@@H]2Cc3ccc(O)cc3[C@@]1(C)CCN2C ?
[A] inactive

[Q] Okay, and CN(C)c1ccc(N=O)cc1 ?
[A] active

[Q] Okay, and CCOc1cccc(C2(N3CCN(c4ccccc4)CC3)CCC(C)CC2)c1 (stereo not given) ?
[A] inactive

[Q] Okay, and CC(C)CCON=O ?
[A] inactive

[Q] Okay, and CCCCCCCCP(=O)(O)O ?
[A] inactive

[Q] Okay, and COC(=O)C1(O)c2ccccc2-c2ccccc21 ?
[A] inactive

[Q] Okay, and Cc1nnc(-c2ccccc2)c(=O)n1N ?
[A] inactive

[Q] Okay, and CC(C)CCCCCCCOC(=O)c1ccccc1C(=O)OCCCCCCCC(C)C ?
[A] inactive

[Q] Okay, and Clc1ccc2ccccc2c1 ?
[A] inactive

[Q] Okay, and C#C[C@]1(O)CC[C@H]2[C@@H]3CCC4=CC(=O)CCC4=C3C=C[C@@]21CC ?
[A] inactive

[Q] Okay, and Clc1ccccc1 ?
[A] inactive

[Q] Okay, and O=C(Cl)OCCOCCOC(=O)Cl ?
[A] inactive

[Q] Okay, and C=CC(=O)NC(C)(C)CC(C)=O ?
[A] inactive

[Q] Okay, and CCC1CCC(=O)O1 (stereo not given) ?
[A] inactive

[Q] Okay, and C[N+](C)(C)CC1CO1 (stereo not given) ?
[A] inactive

[Q] Okay, and COCc1cnc(C2=NC(C)(C(C)C)C(=O)N2)c(C(=O)O)c1 (stereo not given) ?
[A] inactive

[Q] Okay, and C=CCc1ccc(OC(=O)Cc2ccccc2)c(OC)c1 ?
[A] inactive

[Q] Okay, and CC(C)(c1ccccc1)c1cc(-n2nc3ccccc3n2)c(O)c(C(C)(C)c2ccccc2)c1 ?
[A] inactive

[Q] Okay, and CCCCCBr ?
[A] inactive

[Q] Okay, and CC(C)c1ccc(NC(=O)N(C)C)cc1 ?
[A] inactive

[Q] Okay, and CC(C)(C)c1ccc(CCOc2ncnc3ccccc23)cc1 ?
[A] inactive

[Q] Okay, and CCSCc1ccccc1OC(=O)NC ?
[A] inactive

[Q] Okay, and CN1CC[C@]23c4c5ccc(O)c4O[C@H]2[C@@H](O)C=C[C@H]3[C@H]1C5 ?
[A] inactive

[Q] Okay, and CCCC[N+]1(C)[C@@H]2CC(OC(=O)[C@H](CO)c3ccccc3)C[C@H]1[C@@H]1O[C@@H]12 (stereo not given in full) ?
[A] inactive

[Q] Okay, and COc1cc(C[C@@H](C)N)c(OC)cc1Br ?
[A] inactive

[Q] Okay, and C=CCSSCC=C ?
[A] inactive

[Q] Okay, and CC(C)(C)NCC(O)c1ccccc1Cl (stereo not given) ?
[A] inactive

[Q] Okay, and c1ccc2c(c1)-c1cccc3cccc-2c13 ?
[A] inactive

###

molecular target: Cytochrome P450 2C19 (Homo sapiens); assay: Cytochrome P450 Family 2 Subfamily C Member 19 (CYP2C19) small molecule antagonists: luciferase reporter qHTS assay (AID 1671197); conditions: P450-Glo CYP2C19 enzyme, luciferin luminescence, 1 h; series mostly up to 115 µM; note: nearly all actives have a fitted effect of over 65% in size
Results filed as inconclusive are left out. Calls of active or inactive are those of the source. Calls come from the whole dose curve; as a rule, active = well fitted inhibition curve with a large enough effect in the repeat runs; inconclusive = weak or mixed curves; inactive = no such curve, though single readings can be large or run the other way.
Please state which outcome applies, choosing from active, inactive

[Q] Field: outcome | Entry: CC(C)(c1ccccc1)c1cc(-n2nc3ccccc3n2)c(O)c(C(C)(C)c2ccccc2)c1
[A] inactive

[Q] Okay, and CCCCCCCCCCCC[N+](C)(C)CCOc1ccccc1 ?
[A] active

[Q] Okay, and N#CC(C#N)=Cc1ccc(O)c(O)c1 ?
[A] inactive

[Q] Okay, and Nc1ccc2c(c1)Cc1ccccc1-2 ?
[A] active

[Q] Okay, and CN1C(=O)CN=C(c2ccccc2)c2cc([N+](=O)[O-])ccc21 ?
[A] inactive

[Q] Okay, and O=C(Cc1ccccc1)c1ccccc1 ?
[A] active

[Q] Okay, and OCCCl ?
[A] inactive

[Q] Okay, and CNC(=O)Oc1cccc(N=CN(C)C)c1 ?
[A] active

[Q] Okay, and O=C=NC1CCCCC1 ?
[A] inactive

[Q] Okay, and CCCCC(CC)COC(=O)c1c(Br)c(Br)c(Br)c(Br)c1C(=O)OCC(CC)CCCC (configuration not stated) ?
[A] inactive

[Q] Okay, and CCCCCCCCCCCCCCCl ?
[A] inactive

[Q] Okay, and C=CC(=O)NC(C)(C)CC(C)=O ?
[A] inactive

###

Test: qHTS assay to identify small molecule antagonists of the vitamin D receptor (VDR) signaling pathway - cell viability counter screen (AID 743225); note: nearly all actives have a fitted effect of over 50% in size
Conditions: VDR-bla HEK293T viability, CellTiter-Glo luminescence, 16 h; series mostly up to 61 µM
Source text: U.S. Tox21 Program National Center for Advancing Translational Sciences [NCATS] NIH Chemical Genomics Center [NCGC] U.S. Environmental Protection Agency [EPA] National Institutes of Environmental Health Sciences [NIEHS] National Toxicology Program [NTP] U.S. Food and Drug Administration [FDA] Tox21 Assay Overview: The vitamin D receptor (VDR), a member of nuclear hormone receptor superfamily, plays a critical role in calcium homeostasis and bone metabolism. […]
Inconclusive results are not listed. Activity calls are given as the source filed them. Calls come from the whole dose curve; as a rule, active = well fitted cell-killing curve with a large enough effect in the repeat runs; inconclusive = weak or mixed curves, or effect the other way; inactive = no such curve, though single readings can be large or run the other way.
ENDPOINT: outcome

Reference set (10 entries):
| COMPOUND | ENDPOINT | MEASURED VALUE |
| --- | --- | --- |
| C[C@H]1[C@@H]2Cc3ccc(O)cc3[C@@]1(C)CCN2C | outcome | inactive |
| N#CC1(N=NC2(C#N)CCCCC2)CCCCC1 | outcome | inactive |
| O=C(NC(=O)c1cc(F)c(F)cc1Cl)Nc1cc(F)ccc1N1CCC(C(=O)O)CC1 | outcome | inactive |
| NNCCO | outcome | inactive |
| N#CC(C#N)=Cc1ccc(O)c(O)c1 | outcome | inactive |
| Cc1ccc(N)c(C)c1 | outcome | inactive |
| CCC(C)(C)O | outcome | inactive |
| NC(=O)CF | outcome | inactive |
| C[N+]1(CCC(C(N)=O)(c2ccccc2)c2ccccc2)CCCCC1 | outcome | inactive |
| Nc1ccccc1C(=O)OCCc1ccccc1 | outcome | inactive |

[Q] Form field: reported outcome of CCC[N+](CCC)(CCC)CCC
[A] inactive

[Q] Okay, and O=C([O-])c1ccccn1.O=C([O-])c1ccccn1.O=C([O-])c1ccccn1.[Cr+3] ?
[A] inactive

[Q] Okay, and CCOC(=O)c1cn2nc(OP(=S)(OCC)OCC)cc2nc1C ?
[A] inactive

[Q] Okay, and CC(C)(C)OOC(C)(C)CCC(C)(C)OOC(C)(C)C ?
[A] inactive

[Q] Okay, and CCCC[N+]1(C)[C@@H]2CC(OC(=O)[C@H](CO)c3ccccc3)C[C@H]1[C@@H]1O[C@@H]12 (some centres undefined) ?
[A] inactive

[Q] Okay, and CCCSP(=S)(OCC)Oc1ccc(SC)cc1 (centres undefined) ?
[A] inactive
